Target: Secreted aspartic protease 2 (Candida albicans)
Assay: Inhibition of Candida albicans SAP2 at 10 uM by spectrophotometry relative to pepstatin A
Listed here are compounds together with their documented inhibition.
Give just the numeric value; % need not be written.

Would you please look over these solved cases?
[[record]]
compound = "CC(NC(=O)[C@@H]1O[C@@H]2O[C@H]1C(=O)N(Cc1ccccc1)[C@H]2Cc1ccccc1)c1ccccc1 (some centres undefined)"
observable = "inhibition"
result_unit = "%"
recorded_result = 42

[[record]]
compound = "O=C(NCc1ccccc1)[C@@H]1O[C@H]2CN(Cc3ccccc3)C(=O)[C@@H]1O2"
observable = "inhibition"
result_unit = "%"
recorded_result = 18

[[record]]
compound = "O=C([C@@H]1O[C@@H]2O[C@H]1C(=O)N(Cc1ccccc1)[C@H]2Cc1ccccc1)N1CCSCC1"
observable = "inhibition"
result_unit = "%"
recorded_result = 40


Prompt: Write down inhibition measured for item `O=C([C@@H]1O[C@@]2(c3ccccc3)CN(C(c3ccccc3)c3ccccc3)C(=O)[C@@H]1O2)N1CCOCC1`
Response: 19

Prompt: Output inhibition of `C#CCNC(=O)[C@@H]1O[C@H]2CN(Cc3ccccc3)C[C@@H]1O2`
Response: 13

Prompt: Specify inhibition for `CCCNC(=O)[C@@H]1O[C@@H]2O[C@H]1C(=O)N(Cc1ccccc1)[C@H]2Cc1ccccc1` and stop.
Response: 73

Prompt: Answer with the recorded inhibition of `CC(C)C[C@@H](CO)NC(=O)[C@@H]1O[C@@H]2O[C@H]1C(=O)N(Cc1ccccc1)[C@H]2Cc1ccccc1` only.
Response: 87

Prompt: Identify the reported inhibition for the following entry. `CCOC(=O)N1CCN(C(=O)[C@@H]2O[C@@H]3O[C@H]2C(=O)N(Cc2ccccc2)[C@H]3Cc2ccccc2)CC1`
Response: 87

Prompt: Identify the reported inhibition for the following entry. `O=C(NCC(F)(F)F)[C@@H]1O[C@@]2(c3ccccc3)CN(C(c3ccccc3)c3ccccc3)C[C@@H]1O2`
Response: 12

----------
Biological target: Secreted aspartic protease 2 (Candida albicans) (UniProt P0CS83)
Sequence (P0CS83 57-398 limits assumed): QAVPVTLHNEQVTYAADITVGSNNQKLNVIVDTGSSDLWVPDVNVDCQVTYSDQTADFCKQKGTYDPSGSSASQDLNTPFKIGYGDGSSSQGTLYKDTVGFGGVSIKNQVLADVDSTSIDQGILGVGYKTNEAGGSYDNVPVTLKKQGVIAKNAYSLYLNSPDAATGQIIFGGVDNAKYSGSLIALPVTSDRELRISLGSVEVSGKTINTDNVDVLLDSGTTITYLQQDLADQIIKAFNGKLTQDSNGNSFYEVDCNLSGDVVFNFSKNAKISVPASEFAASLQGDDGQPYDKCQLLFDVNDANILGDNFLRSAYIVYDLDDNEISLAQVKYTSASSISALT
Assay: Inhibition of Candida albicans SAP2 at 10 uM by spectrophotometry
Decide by inhibition: equal to or exceeding 4% means Yes, less means No.

A selection of reference data follows.
[[record]]
compound_string = "CCCCCNC(=O)[C@@H]1O[C@H]2CN(Cc3ccccc3)C(=O)[C@@H]1O2"
class_name = "Yes"

[[record]]
compound_string = "CCCNC(=O)[C@@H]1O[C@@H]2O[C@H]1C(=O)N(Cc1ccccc1)[C@H]2Cc1ccccc1"
class_name = "Yes"


Turning now to a further compound:
Prompt: Hello, I need to know if `O=C([C@@H]1O[C@H]2CN(Cc3ccccc3)C(=O)[C@@H]1O2)N1CCCNCC1` has measured inhibition not below 4%. Thanks!
Response: Yes

----------
# maps each entry to its inhibition
Target: Secreted aspartic protease 2 (Candida albicans) (UniProt P0CS83)
Experiment: Inhibition of Candida albicans SAP2 at 10 uM by spectrophotometry
Quick reminder: number only, in %, skip the unit.

Known results for compounds:
[[record]]
compound_string = "CC(C)CNC(=O)[C@@H]1O[C@H]2CN(Cc3ccccc3)C(=O)[C@@H]1O2"
recorded_result = 4

[[record]]
compound_string = "O=C([C@@H]1O[C@H]2CN(Cc3ccccc3)C[C@@H]1O2)N1CCSCC1"
recorded_result = 2

[[record]]
compound_string = "CCCCNC(=O)[C@@H]1O[C@@]2(c3ccccc3)CN(C(c3ccccc3)c3ccccc3)C[C@@H]1O2"
recorded_result = 3


--- query ---
Prompt: Given the compound `CCOC(=O)C1CCN(C(=O)[C@@H]2O[C@@H]3O[C@H]2C(=O)N(Cc2ccccc2)[C@H]3Cc2ccccc2)CC1` , write its reported inhibition.
Response: 17
